Record set: pIC50 | SRSF protein kinase 1 (Homo sapiens, UniProt Q96SB4) | literature, multiple sources.
pIC50: −log10 of the molar value.

- COMPOUND_STRUCTURE_STRING: "Cc1ccc2nc(-c3ncc(NCc4cccnc4N(C)S(C)(=O)=O)cn3)[nH]c2c1"
  TARGET_DESC: "SRSF protein kinase 1 (Homo sapiens, UniProt Q96SB4)"
  pIC50: "> 7.30"
- COMPOUND_STRUCTURE_STRING: "O=C(Nc1cc(C(F)(F)F)ccc1N1CCCCC1)c1ccncc1"
  TARGET_DESC: "SRSF protein kinase 1 (Homo sapiens, UniProt Q96SB4)"
  pIC50: 7.08
- COMPOUND_STRUCTURE_STRING: "N#CCNC(=O)c1ccc(-c2ccnc(Nc3ccc(N4CCOCC4)cc3)n2)cc1"
  TARGET_DESC: "SRSF protein kinase 1 (Homo sapiens, UniProt Q96SB4)"
  pIC50: "< 6.00"
- COMPOUND_STRUCTURE_STRING: "CN(c1ncccc1CNc1cnc(-c2nc3cc(Cl)cc(F)c3[nH]2)nc1)S(C)(=O)=O"
  TARGET_DESC: "SRSF protein kinase 1 (Homo sapiens, UniProt Q96SB4)"
  pIC50: "> 7.30"

Lookup: pIC50 / SRSF protein kinase 1 (Homo sapiens, UniProt Q96SB4) / CNC(=O)c1cc(Oc2ccc(NC(=O)Nc3cc(C(C)(C)C)nn3-c3ccc4ncccc4c3)c(F)c2)ccn1
Found: < 6.00

Lookup: pIC50 / SRSF protein kinase 1 (Homo sapiens, UniProt Q96SB4) / O=C(O)c1ccc2cc3nc(-c4cccs4)c(-c4cccs4)nc3cc2c1
Found: 7.40

Lookup: pIC50 / SRSF protein kinase 1 (Homo sapiens, UniProt Q96SB4) / CN(c1ncccc1CNc1cnc(-c2nc3cc(F)cc(F)c3[nH]2)nc1)S(C)(=O)=O
Found: > 7.30

Lookup: pIC50 / SRSF protein kinase 1 (Homo sapiens, UniProt Q96SB4) / CC(C)c1ccc2[nH]c(-c3ncc(NCc4cccnc4N(C)S(C)(=O)=O)cn3)nc2c1
Found: > 7.30

Lookup: pIC50 / SRSF protein kinase 1 (Homo sapiens, UniProt Q96SB4) / O=C(NC1CC1)c1cc(NCc2cnc(Nc3ccccn3)s2)c(F)cc1F
Found: < 5.00

Lookup: pIC50 / SRSF protein kinase 1 (Homo sapiens, UniProt Q96SB4) / CN(c1ncccc1CNc1cnc(-c2nc3cc(-c4cnn(C)c4)ccc3[nH]2)nc1)S(C)(=O)=O
Found: > 7.30
